Assay Target: Serine/threonine-protein kinase BRSK2 (Homo sapiens) (UniProt Q8IWQ3);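 further: mean kinase inhibition reported within the GSK PKIS dataset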
Sequence (Q8IWQ3 whole entry): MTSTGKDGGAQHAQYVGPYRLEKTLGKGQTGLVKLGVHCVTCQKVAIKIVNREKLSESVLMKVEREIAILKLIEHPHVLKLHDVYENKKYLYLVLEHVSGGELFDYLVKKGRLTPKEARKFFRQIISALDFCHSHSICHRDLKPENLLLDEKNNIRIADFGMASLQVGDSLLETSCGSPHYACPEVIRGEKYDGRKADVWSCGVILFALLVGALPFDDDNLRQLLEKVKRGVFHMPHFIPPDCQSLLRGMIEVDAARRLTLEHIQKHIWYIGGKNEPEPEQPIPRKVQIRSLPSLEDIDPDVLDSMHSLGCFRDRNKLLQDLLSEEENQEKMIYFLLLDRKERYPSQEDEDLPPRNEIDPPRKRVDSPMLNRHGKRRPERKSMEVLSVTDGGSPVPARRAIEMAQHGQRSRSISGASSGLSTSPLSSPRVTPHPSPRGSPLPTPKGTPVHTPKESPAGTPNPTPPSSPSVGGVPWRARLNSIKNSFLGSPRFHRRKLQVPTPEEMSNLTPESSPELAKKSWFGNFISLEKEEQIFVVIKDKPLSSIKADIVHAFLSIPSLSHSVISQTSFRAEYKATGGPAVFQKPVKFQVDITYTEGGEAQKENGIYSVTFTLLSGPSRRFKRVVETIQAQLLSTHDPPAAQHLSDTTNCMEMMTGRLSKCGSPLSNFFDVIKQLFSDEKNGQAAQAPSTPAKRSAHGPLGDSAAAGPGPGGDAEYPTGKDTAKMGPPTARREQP
Measurement Context: at 1 µM
Observation Type: inhibition (%)
Enter your answer as a number in %; do not include the unit.

Q: Could you tell me which inhibition is on file for `NS(=O)(=O)c1ccc(N/N=C2\C(=O)Nc3ccc(Cl)cc32)cc1` ?
Ans: 14.9

Q: # lookup: inhibition of `Cc1ccc2c(-c3ccnc(Nc4ccc5c(c4)OCCO5)n3)c(-c3ccc(C(F)(F)F)cc3)nn2n1`
Ans: 0.79

Further cases:
Q: Quick one: inhibition of `CCS(=O)(=O)c1ccc(OC)c(Nc2ncc(-c3cccc(OC)c3)o2)c1` ?
Ans: 0.66

Q: // inhibition lookup, key: `CS(=O)(=O)Nc1cccc(-c2ccc3c(NC(=O)C4CC4)n[nH]c3c2)c1`
Ans: 19.1

Q: Given `O=C1Nc2ccccc2/C1=C/Nc1ccc2[nH]c(=O)[nH]c2c1` , state its recorded inhibition.
Ans: 25.8

---

# reported inhibition; entries follow
Assay Target: Serine/threonine-protein kinase 3 (Homo sapiens) (UniProt Q13188);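 further: each value is the mean inhibition of MST2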
Sequence (Q13188 whole entry): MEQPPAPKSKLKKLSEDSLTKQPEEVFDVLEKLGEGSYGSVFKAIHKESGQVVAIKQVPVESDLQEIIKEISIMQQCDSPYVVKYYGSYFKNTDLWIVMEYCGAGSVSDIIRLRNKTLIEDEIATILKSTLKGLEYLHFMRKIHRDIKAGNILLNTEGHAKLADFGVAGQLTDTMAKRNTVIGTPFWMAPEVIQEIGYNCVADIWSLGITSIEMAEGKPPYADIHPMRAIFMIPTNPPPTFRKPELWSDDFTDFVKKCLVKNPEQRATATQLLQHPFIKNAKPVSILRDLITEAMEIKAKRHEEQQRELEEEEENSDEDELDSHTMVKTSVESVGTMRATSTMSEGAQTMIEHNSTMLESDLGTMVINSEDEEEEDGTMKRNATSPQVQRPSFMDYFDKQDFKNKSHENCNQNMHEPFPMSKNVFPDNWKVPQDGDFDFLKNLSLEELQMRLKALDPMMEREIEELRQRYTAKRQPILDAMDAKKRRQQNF
Measurement Context: at 1 µM
Give the number; % is assumed, so skip it.

Q: Data request, read-out inhibition, for `Oc1cccc(-c2nc(-c3ccccc3)[nH]c2-c2ccncc2)c1`
Ans: 7.6

Q: Which inhibition value is on record for `N#Cc1c(NC(=O)c2ccccc2F)sc2c1CCCC2` ?
Ans: 1.41

Q: Request the reported inhibition associated with `COc1cc2ncn(-c3cc(OCc4ccccc4S(C)(=O)=O)c(C#N)s3)c2cc1OC`
Ans: 51.5

Q: # lookup: inhibition of `Cc1cc(O)cc(C)c1/C=C/c1cncc(C(=O)N(C)C)c1`
Ans: 2.26

Q: What does the data say about its inhibition? Entry: `NS(=O)(=O)c1ccc(N/N=C2\C(=O)Nc3ccc(Cl)cc32)cc1`
Ans: 56.9

More entries:
Q: Query: inhibition; subject: `NS(=O)(=O)c1ccc(-c2cc3ccncc3cc2OCc2ccccc2)cc1`
Ans: 5.97

Q: What value of measured inhibition is listed for `Cc1ccc(C(=O)NC2CC2)cc1-c1ccc2[nH]ncc2c1` ?
Ans: -2.04

---

Assay Target: High affinity nerve growth factor receptor (Homo sapiens) (UniProt P04629);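 further: each value is a mean of replicate percent inhibition readings against TRKA kinase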
Sequence (P04629 33-796 limits assumed): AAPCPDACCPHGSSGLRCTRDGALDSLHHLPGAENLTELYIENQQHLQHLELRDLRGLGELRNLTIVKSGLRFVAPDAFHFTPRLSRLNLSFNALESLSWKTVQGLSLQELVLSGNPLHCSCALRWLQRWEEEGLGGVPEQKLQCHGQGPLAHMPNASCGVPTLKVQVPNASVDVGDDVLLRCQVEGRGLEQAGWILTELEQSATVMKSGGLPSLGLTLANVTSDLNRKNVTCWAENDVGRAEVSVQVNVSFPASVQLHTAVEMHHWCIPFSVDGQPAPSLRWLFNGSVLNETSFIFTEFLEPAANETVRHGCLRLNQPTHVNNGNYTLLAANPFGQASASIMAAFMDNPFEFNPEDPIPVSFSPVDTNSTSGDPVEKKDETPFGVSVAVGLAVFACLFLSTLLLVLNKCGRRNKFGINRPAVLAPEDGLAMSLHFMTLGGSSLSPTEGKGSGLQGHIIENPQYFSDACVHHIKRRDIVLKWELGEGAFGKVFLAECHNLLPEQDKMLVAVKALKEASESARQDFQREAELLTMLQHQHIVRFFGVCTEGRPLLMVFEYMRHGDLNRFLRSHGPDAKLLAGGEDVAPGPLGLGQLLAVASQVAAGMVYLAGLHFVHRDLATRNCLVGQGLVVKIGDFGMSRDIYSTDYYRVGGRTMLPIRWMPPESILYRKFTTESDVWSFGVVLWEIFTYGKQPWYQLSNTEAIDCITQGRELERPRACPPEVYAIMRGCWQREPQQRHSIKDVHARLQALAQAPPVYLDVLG
Measurement Context: at 0.1 µM
Measured inhibition, listed per entry.
Field: numeric (%). Do not append units.

Guide cases for inhibition, answers given:
Q: What does the record list as inhibition for `NC(=O)c1cccc(Nc2nccc(Nc3cccc(F)c3)n2)c1` ?
Ans: 1.89

Q: Item under review: `NS(=O)(=O)c1cccc(-c2cc3ccncc3cc2OCc2ccccc2)c1` . Reported inhibition?
Ans: 1.41

---
Q: Can you look up the measured inhibition of `CN(C)c1cc2c(Nc3ccc4c(cnn4Cc4ccccc4)c3)ncnc2cn1` for me?
Ans: 1.75

Q: Suppose we examine the compound `COC(=O)c1ccc2c(c1)C(=Cc1cc(Br)c(O)c(Br)c1)C(=O)N2` ; what inhibition value has been reported?
Ans: 2.4

Q: Give its inhibition value. Item: `N#Cc1c(NC(=O)c2ccccc2F)sc2c1CCCC2`
Ans: -0.84

Q: Fill in: inhibition of `COc1cccc(-n2ncc3c(N/N=C/c4ccc(S(C)(=O)=O)cc4)ncnc32)c1` is ___
Ans: 4.94

---

Tested on: Leucine-rich repeat serine/threonine-protein kinase 2 (Homo sapiens), Q5S007 [G2019S]
Sequence (Q5S007 whole entry G2019S): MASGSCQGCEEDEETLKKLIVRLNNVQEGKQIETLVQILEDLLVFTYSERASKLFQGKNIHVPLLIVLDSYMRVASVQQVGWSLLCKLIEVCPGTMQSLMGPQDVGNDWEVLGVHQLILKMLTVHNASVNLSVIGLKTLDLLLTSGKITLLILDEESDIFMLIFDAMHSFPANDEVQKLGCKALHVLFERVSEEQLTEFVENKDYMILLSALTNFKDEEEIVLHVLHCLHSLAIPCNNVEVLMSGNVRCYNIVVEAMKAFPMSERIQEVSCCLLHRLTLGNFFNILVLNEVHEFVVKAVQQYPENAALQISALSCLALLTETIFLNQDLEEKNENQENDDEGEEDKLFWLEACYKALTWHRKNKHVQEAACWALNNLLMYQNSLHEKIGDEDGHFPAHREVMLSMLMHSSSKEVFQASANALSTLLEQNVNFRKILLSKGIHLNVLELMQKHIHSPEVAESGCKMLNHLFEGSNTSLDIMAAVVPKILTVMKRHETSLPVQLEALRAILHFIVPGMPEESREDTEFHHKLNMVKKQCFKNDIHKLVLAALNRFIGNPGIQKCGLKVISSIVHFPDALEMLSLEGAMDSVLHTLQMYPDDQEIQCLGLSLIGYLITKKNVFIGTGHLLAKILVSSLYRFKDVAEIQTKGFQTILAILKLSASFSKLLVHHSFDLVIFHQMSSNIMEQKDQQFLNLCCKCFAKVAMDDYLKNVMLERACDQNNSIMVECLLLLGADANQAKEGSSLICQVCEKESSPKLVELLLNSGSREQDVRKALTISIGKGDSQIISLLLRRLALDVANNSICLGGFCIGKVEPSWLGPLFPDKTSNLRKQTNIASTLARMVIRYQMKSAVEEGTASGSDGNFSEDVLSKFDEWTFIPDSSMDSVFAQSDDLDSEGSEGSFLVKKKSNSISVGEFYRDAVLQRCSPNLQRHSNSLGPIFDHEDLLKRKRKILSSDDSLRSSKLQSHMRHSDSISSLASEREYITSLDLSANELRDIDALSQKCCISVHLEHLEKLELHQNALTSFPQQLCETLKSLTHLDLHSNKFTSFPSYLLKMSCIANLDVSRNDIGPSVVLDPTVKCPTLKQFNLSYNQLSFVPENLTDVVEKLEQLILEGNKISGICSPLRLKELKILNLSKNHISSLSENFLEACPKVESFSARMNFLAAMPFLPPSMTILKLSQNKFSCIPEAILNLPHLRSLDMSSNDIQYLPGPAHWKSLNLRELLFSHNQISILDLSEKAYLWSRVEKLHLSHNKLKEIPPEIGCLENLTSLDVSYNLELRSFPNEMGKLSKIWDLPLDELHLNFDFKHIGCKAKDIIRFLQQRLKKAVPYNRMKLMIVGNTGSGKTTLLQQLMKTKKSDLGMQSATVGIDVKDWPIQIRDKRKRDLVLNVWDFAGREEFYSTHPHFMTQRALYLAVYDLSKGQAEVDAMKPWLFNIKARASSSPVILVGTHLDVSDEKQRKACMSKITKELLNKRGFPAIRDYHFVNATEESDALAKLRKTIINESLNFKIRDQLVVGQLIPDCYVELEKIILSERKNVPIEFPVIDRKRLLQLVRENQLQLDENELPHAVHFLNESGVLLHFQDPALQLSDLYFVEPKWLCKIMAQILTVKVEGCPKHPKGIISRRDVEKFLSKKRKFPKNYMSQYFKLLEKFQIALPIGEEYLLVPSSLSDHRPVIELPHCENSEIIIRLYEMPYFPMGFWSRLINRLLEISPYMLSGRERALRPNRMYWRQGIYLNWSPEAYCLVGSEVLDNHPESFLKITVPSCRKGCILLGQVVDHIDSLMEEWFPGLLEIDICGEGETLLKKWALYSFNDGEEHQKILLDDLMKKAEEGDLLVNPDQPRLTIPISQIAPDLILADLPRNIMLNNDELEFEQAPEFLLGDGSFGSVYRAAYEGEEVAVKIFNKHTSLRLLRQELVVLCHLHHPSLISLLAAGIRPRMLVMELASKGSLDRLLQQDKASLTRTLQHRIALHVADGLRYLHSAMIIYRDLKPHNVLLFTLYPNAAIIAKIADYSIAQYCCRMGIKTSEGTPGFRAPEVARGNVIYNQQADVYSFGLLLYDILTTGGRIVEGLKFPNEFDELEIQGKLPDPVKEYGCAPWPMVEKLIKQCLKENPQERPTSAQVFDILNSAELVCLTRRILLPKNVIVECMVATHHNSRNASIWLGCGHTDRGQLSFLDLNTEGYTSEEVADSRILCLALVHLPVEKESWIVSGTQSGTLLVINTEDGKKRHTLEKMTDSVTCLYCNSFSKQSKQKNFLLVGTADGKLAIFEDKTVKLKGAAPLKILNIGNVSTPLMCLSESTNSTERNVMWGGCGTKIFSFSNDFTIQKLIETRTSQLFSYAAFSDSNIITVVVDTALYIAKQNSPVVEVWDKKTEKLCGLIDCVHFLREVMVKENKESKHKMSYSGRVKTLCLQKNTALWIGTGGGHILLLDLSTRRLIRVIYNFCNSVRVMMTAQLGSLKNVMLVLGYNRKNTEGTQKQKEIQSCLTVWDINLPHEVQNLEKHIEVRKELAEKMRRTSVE
Measurement Context: at 0.1 µM
The following compounds are listed with their measured inhibition values.
Could you give me the number in %? Just the number is fine.

Q: inhibition lookup needed for `CCS(=O)(=O)c1ccc(OC)c(Nc2ncc(-c3cccc(OC)c3)o2)c1` , thanks.
Ans: 7.7

Q: Please report the recorded inhibition for `Nc1nccc(C#Cc2cncnc2Nc2ccc(OCc3cccc(F)c3)c(Cl)c2)n1` .
Ans: 8.54

Q: Would you mind telling me what inhibition value was observed for `COc1cccc(-n2ncc3c(N/N=C/c4ccc(C)cc4)ncnc32)c1` ?
Ans: 11.3

Q: Sample `COC(=O)Nc1nc2cc(Oc3ccc(NC(=O)Nc4cccc(Br)c4)cc3)ccc2[nH]1` — what was its inhibition?
Ans: 4.67

Q: Report inhibition for `Cc1cc(-c2ccccn2)cc(C)c1/C=C/c1cncc(-c2nn[nH]n2)c1` please.
Ans: 3.32
